Measured values drawn from ChEMBL document CHEMBL3797088 for this set.

Reported IC50 values for a set of molecules
Test system: HT-29
Assay: Antiproliferative activity against human HT-29 cells harboring B-RAF V600E mutant after 72 hrs by SRB assay
Type: functional, cell-based
Settings: HT-29, 72 h
Quantity: IC50 (µM)

• O=C(NCc1ccnc(Cl)c1)c1ccc2[nH]nc(-c3ccncc3)c2c1 = 9.4
• Cc1cc(-c2n[nH]c3ccc(C(=O)NCc4c(Cl)cnc(Cl)c4Cl)cc23)ccn1 = 1.1
• CC(NC(=O)c1ccc2[nH]nc(-c3ccncc3)c2c1)c1ccccc1Cl (stereo not drawn) = 3.5
• O=C(NCCc1ccccc1)c1ccc2[nH]nc(-c3ccncc3)c2c1 = 3.3
• CC(NC(=O)c1ccc2[nH]nc(-c3cc(F)c(O)c(F)c3)c2c1)c1cccc(Cl)c1 (stereo not drawn) = 3.3
• O=C(NCc1cccc(Cl)c1)c1ccc2[nH]nc(-c3ccncc3)c2c1 = 2.3
• O=C(NCCOc1ccccc1)c1ccc2[nH]nc(-c3ccncc3)c2c1 = 9.1
• Nc1cc(-c2n[nH]c3ccc(C(=O)NC(CO)c4cccc(Cl)c4)cc23)ccn1 (stereo not drawn) = 20.9
• O=C(NCc1c(Cl)cncc1Cl)c1ccc2[nH]nc(-c3ccncc3)c2c1 = 6.1
• Cc1cc(-c2n[nH]c3ccc(C(=O)N[C@H](C)c4c(Cl)cccc4Cl)cc23)ccn1 = 10.7
• CCC(NC(=O)c1ccc2[nH]nc(-c3ccncc3)c2c1)c1cccc(Cl)c1 (stereo not drawn) = 1.5
• Cc1cc(-c2n[nH]c3ccc(C(=O)N[C@@H](C)c4c(Cl)cccc4Cl)cc23)ccn1 = 0.48
• O=C(NC(CO)c1cc(Cl)cc(Cl)c1)c1ccc2[nH]nc(-c3ccncc3)c2c1 (stereo not drawn) = 3.4
• Cc1cc(-c2n[nH]c3ccc(C(=O)NC(C)c4ccncc4)cc23)ccn1 (stereo not drawn) = 10.4
• Cc1cc(-c2n[nH]c3ccc(C(=O)NC(C)c4c(Cl)cncc4Cl)cc23)ccn1 (stereo not drawn) = 0.35
• O=C(NCCc1cccc(Cl)c1)c1ccc2[nH]nc(-c3ccncc3)c2c1 = 15.3
• CC(C)Nc1cc(-c2c[nH]c(C(=O)N[C@H](CO)c3ccccc3)c2)c(Cl)cn1 = 1.6
• CC(C)CC(NC(=O)c1ccc2[nH]nc(-c3ccncc3)c2c1)c1cccc(Cl)c1 (stereo not drawn) = 7.1
